# assay.target: hGOAT (Homo sapiens)
# Construct: expressed in transfected cells; host or cells: HEK293 (Hek293 hGOAT/PPGhrl Clone #1B8)
# Sequence (Q96T53 1-435): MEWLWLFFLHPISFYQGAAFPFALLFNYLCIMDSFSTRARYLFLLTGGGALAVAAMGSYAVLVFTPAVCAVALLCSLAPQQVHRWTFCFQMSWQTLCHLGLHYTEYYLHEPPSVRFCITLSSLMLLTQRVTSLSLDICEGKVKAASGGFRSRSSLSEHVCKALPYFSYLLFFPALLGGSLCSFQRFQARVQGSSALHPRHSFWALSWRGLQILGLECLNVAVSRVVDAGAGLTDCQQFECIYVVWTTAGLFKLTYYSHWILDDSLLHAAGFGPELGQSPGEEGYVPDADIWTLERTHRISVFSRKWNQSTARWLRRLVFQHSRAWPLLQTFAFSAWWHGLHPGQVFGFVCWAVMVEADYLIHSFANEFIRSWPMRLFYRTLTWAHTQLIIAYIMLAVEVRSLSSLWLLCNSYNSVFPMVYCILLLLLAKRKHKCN
# test.method.notes: Determination of hGOAT activity in HEK293 cells after incubation with test compound (acyl-ghrelin ELISA)
# Format: cell-based
# measurement.parameters: HEK293 cells stably transfected with preproghrelin and human GOAT; octanoate-BSA 100 μM; 5 hours incubation; acyl-ghrelin in medium by ELISA; 8 compound concentrations
pIC50: −log10 of the molar value.
endpoint: pIC50

As a guide, the following entries are already answered.
Cc1nc2nonc2c(N)c1Cc1ccc(OC(F)(F)F)cc1 :: 9.41
COc1cc(Cc2c(C)nc3nonc3c2N)ccc1C#N :: 9.40
Cc1nc2nonc2c(N)c1Cc1ccc(OC2CCC2)nc1 :: 9.43
CNC(=O)c1cc(Cc2c(C)nc3nonc3c2N)ccc1Cl :: 9.03
Cc1nc2nonc2c(N)c1Cc1ccc(OC(F)(F)F)c(Br)c1 :: 10.02

1. Cc1nc2nonc2c(N)c1Cc1ccc(OC2CCOC2)nc1 (centres unmarked)
2. Cc1nc2nonc2c(N)c1Cc1ccc(C#N)c(OCCC(F)(F)F)c1
3. Cc1nc2nonc2c(N)c1Cc1ccc(OC(F)F)n2cnnc12
4. Cc1nc2nonc2c(N)c1Cc1ccc(C2(C(=O)O)CC2)nc1
Q. Number of compounds to sort: 4. Sort criterion: pIC50, ascending. List the labels in the requested order.
A. 4, 1, 2, 3

P. Cc1nc2nonc2c(N)c1Cc1ccc(C#N)nc1
Q. Cc1nc2nonc2c(N)c1Cc1ccc(OCC2(C)COC2)nc1
Q. Lab note: record which item had the higher pIC50, P or Q . Please reply using the label of the selected record.
A. Q
(Q: 8.72, P: 8.51)

1. Cc1nc2nonc2c(N)c1Cc1ccc(OC(F)(F)F)c(C(=O)N(C)C)c1
2. Cc1nc2nonc2c(N)c1Cc1ccc(C(=O)NC2CCOCC2)cc1
Q. Hello, I am sorting some records. Could you say if 1 or 2 has the smaller pIC50 value? Please reply using the label of the selected record.
A. 2
(2: 8.63, 1: 9.74)

====

# assay.target: hGOAT (Homo sapiens, UniProt Q96T53)
# test.method.notes: Determination of hGOAT activity in HEK293 cells after incubation with test compound (acyl-ghrelin ELISA)
# measurement.parameters: HEK293 cells stably transfected with preproghrelin and human GOAT; octanoate-BSA 100 μM; 5 hours incubation; acyl-ghrelin in medium by ELISA; 8 compound concentrations
pIC50: −log10 of the molar value.
endpoint: pIC50

As a guide, the following entries are already answered.
Cc1nc2nonc2c(N)c1Cc1ccc(-c2ccsc2C#N)nc1 [Compound 12.3] :: 9.29
Cc1nc2nonc2c(N)c1Cc1ccc(C(=O)NC2(CO)CC2)cc1 [Compound 14.6] :: 8.37

1. Cc1nc2nonc2c(N)c1Cc1ccc(-n2cccn2)nc1 [Compound 20.2]
2. Cc1nc2nonc2c(N)c1Cc1ccc(C2(C#N)CCOCC2)nc1 [Compound 4.27]
Q. Hello, I am sorting some records. Could you say if 1 or 2 has the smaller pIC50 value? Please reply using the label of the selected record.
A. 1

====

# assay.target: hGOAT (Homo sapiens, UniProt Q96T53)
# test.method.notes: Determination of hGOAT activity in HEK293 cells after incubation with test compound (acyl-ghrelin ELISA)
# measurement.parameters: HEK293 cells stably transfected with preproghrelin and human GOAT; octanoate-BSA 100 μM; 5 hours incubation; acyl-ghrelin in medium by ELISA; 8 compound concentrations
pIC50: −log10 of the molar value.
endpoint: pIC50

N#Cc1nc2nonc2c(N)c1Cc1ccc(C(F)(F)F)cc1 :: 8.62

1. CSc1ccc(Cc2c(C)nc3nonc3c2N)cc1
2. Cc1nc2nonc2c(N)c1Cc1ccc(C#N)c(O[C@H]2CCC(=O)NC2)c1
Q. Hello, I am sorting some records. Could you say if 1 or 2 has the smaller pIC50 value? Please reply using the label of the selected record.
A. 2

I. COc1ncccc1Cc1c(C)nc2nonc2c1N
II. CCC(C#N)(CC)c1ccc(Cc2c(C)nc3nonc3c2N)cn1
Q. Hello, I am sorting some records. Could you say if I or II has the smaller pIC50 value? Please reply using the label of the selected record.
A. I
(I: 8.97, II: 10.09)

A. Cc1nc2nonc2c(N)c1Cc1cccc(S(=O)(=O)C(F)(F)F)c1
B. Cc1nc2nonc2c(N)c1Cc1ccccc1
Q. Lab note: record which item had the higher pIC50, A or B . Please reply using the label of the selected record.
A. A
(A: 9.42, B: 8.52)

a. Cc1nc2nonc2c(N)c1Cc1ccc(F)cc1F
b. COc1ccc(Cc2c(C)nc3nonc3c2N)cn1
Q. Lab note: record which item had the higher pIC50, a or b . Please reply using the label of the selected record.
A. a
(a: 9.45, b: 8.80)

====

# assay.target: hGOAT (Homo sapiens, UniProt Q96T53)
# Sequence (Q96T53 1-435): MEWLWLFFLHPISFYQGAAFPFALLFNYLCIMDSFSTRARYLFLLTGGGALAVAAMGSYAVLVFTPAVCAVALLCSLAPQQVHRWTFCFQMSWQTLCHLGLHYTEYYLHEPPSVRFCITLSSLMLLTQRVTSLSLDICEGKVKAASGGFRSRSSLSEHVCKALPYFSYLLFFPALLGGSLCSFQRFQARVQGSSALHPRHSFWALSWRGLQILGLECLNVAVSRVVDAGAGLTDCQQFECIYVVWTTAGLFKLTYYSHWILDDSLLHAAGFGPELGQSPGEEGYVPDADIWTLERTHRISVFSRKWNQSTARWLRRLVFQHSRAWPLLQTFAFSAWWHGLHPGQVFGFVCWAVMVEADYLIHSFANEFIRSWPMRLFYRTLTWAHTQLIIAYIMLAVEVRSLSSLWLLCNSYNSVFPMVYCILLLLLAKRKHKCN
# test.method.notes: Determination of hGOAT activity in HEK293 cells after incubation with test compound (acyl-ghrelin ELISA)
# measurement.parameters: HEK293 cells stably transfected with preproghrelin and human GOAT; octanoate-BSA 100 μM; 5 hours incubation; acyl-ghrelin in medium by ELISA; 8 compound concentrations
pIC50: −log10 of the molar value.
endpoint: pIC50

As a guide, the following entries are already answered.
Cc1nc2nonc2c(N)c1Cc1ccc(C(=O)NC2CCN(C)C2=O)cc1 (stereo not shown) [Compound 14.9] :: 8.51
Nc1c(Cc2ccc(C(F)(F)F)cc2)c(CO)nc2nonc12 [Compound 24.2] :: 8.24

A. Cc1nc2nonc2c(N)c1Cc1ccc(C#N)c(F)c1 [Compound 4.31]
B. Cc1nc2nonc2c(N)c1Cc1ccc(OC2CCOCC2)nc1 [Compound 21.12]
Q. Lab note: record which item had the higher pIC50, A or B . Please reply using the label of the selected record.
A. A
(A: 9.31, B: 9.01)

====

# assay.target: hGOAT (Homo sapiens, UniProt Q96T53)
# Sequence (Q96T53 1-435): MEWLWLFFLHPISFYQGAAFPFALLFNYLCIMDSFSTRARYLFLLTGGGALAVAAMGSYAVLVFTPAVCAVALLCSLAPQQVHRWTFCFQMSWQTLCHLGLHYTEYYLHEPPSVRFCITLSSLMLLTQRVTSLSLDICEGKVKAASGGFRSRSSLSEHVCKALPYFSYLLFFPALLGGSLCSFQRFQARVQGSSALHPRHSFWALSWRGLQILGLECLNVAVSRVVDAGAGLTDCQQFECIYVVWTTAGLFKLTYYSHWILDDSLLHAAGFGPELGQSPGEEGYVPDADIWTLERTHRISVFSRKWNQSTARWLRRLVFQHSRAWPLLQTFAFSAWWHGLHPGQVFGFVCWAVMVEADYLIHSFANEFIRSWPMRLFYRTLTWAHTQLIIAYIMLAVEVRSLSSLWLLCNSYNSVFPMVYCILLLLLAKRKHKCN
# test.method.notes: Determination of hGOAT activity in HEK293 cells after incubation with test compound (acyl-ghrelin ELISA)
# measurement.parameters: HEK293 cells stably transfected with preproghrelin and human GOAT; octanoate-BSA 100 μM; 5 hours incubation; acyl-ghrelin in medium by ELISA; 8 compound concentrations
pIC50: −log10 of the molar value.
endpoint: pIC50

Cc1nc2nonc2c(N)c1Cc1ccc(C(F)F)cc1 [Compound 17.2] :: 9.77
Cc1nc2nonc2c(N)c1Cc1ccc(C#N)cc1 [Compound 2.8] :: 9.38
Cc1nc2nonc2c(N)c1Cc1ccc(C(=O)Nc2cn(C)nc2C(F)(F)F)cc1 [Compound 14.7] :: 8.74
Cc1nc2nonc2c(N)c1Cc1ccc(C(=O)NCc2ccn(C)n2)cc1 [Compound 14.4] :: 8.65
Cc1nc2nonc2c(N)c1Cc1ccc(I)cc1 [Compound 1.4] :: 9.90

I. Cc1nc2nonc2c(N)c1Cc1ccc(-c2ccsc2C#N)n2cnnc12 [Compound 12.12]
II. Cc1nc2nonc2c(N)c1Cc1ccc(C(C)(C)C)nc1 [Compound 4.7]
Q. Hello, I am sorting some records. Could you say if I or II has the smaller pIC50 value? Please reply using the label of the selected record.
A. I
